- target entity: hormone-sensitive lipase (HSL) (Rattus norvegicus, UniProt P15304)
- Construct: Isolated rat fat cells are obtained from epididymal adipose tissue from untreated male rats
- Sequence (P15304 301-1068): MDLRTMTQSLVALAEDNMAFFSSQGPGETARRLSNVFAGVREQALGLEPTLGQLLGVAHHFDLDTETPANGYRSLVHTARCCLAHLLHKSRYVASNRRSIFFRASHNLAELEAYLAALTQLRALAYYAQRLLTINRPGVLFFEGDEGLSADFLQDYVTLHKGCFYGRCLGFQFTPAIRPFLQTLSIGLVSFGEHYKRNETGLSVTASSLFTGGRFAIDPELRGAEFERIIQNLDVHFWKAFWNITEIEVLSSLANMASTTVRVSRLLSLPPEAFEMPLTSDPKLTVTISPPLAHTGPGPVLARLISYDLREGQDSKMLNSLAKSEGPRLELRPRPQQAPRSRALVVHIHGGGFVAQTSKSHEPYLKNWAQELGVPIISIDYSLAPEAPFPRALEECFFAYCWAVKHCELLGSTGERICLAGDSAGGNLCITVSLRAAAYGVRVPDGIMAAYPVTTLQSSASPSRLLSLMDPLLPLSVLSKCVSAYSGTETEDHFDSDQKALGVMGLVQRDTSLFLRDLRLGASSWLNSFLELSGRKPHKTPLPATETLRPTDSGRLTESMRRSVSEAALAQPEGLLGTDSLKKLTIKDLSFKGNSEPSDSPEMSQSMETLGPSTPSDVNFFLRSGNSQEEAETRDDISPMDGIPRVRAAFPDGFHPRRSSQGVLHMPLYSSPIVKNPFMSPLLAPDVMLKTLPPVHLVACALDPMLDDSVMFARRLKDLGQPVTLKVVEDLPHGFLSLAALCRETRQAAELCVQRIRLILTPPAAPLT
- measurement notes: HSL enzyme assay (NAG assay) with partially purified HSL
- test parameters: inhibition of HSL enzymatic activity; partially purified HSL from rat fat cells; NAG substrate; 30° C., 60 min
readout kind: IC50 (nM)

Known IC50 results, listed for orientation:
[[record]]
compound = "CN(C)C=NS(=O)(=O)c1cc(S(=O)(=O)NC2CCCCC2)c(N)cc1C(F)(F)F [Example 48]"
readout_kind = "IC50"
obs_value = 700

[[record]]
compound = "CCCCN(CCCC)S(=O)(=O)c1cc(S(=O)(=O)N=CN(C)C)c(Cl)cc1N [Example 28]"
readout_kind = "IC50"
obs_value = 30

[[record]]
compound = "Cc1cc(C)cc(OCc2ccc(Cl)c(S(=O)(=O)N=CN(C)C)c2)c1 [Example 19]"
readout_kind = "IC50"
obs_value = 400

[[record]]
compound = "CC1CC(N(Cc2ccc(Cl)c(S(=O)(=O)N=CN(C)C)c2)S(C)(=O)=O)CC(C)(C)C1 (centres unmarked) [Example 21]"
readout_kind = "IC50"
obs_value = 500

[[record]]
compound = "CC1CC(NS(=O)(=O)c2ccc(Cl)c(S(=O)(=O)N=CN(C)C)c2)CC(C)(C)C1 (centres unmarked) [Example 23]"
readout_kind = "IC50"
obs_value = 150

[[record]]
compound = "C=CCN(C1CCCCC1)S(=O)(=O)c1cc(S(=O)(=O)N=CN(C)C)c(Cl)cc1N [Example 33]"
readout_kind = "IC50"
obs_value = 200


[1] CC1CC(NS(=O)(=O)c2cc(S(=O)(=O)N=CN(C)C)c(Cl)cc2N)CC(C)(C)C1 (centres unmarked) [Example 32]
[2] CC(C)CN(CC(C)C)S(=O)(=O)c1cc(S(=O)(=O)N=CN(C)C)c(Cl)cc1N [Example 29]
Asked: Task for the reader: decide whether 1 or 2 has the larger IC50. Write the label of whichever entry you select.
Given back: 2

* * *

readout kind: melting point (°C)

[I] COc1ccc(S(=O)(=O)N=CN(C)C)cc1CN1CC(C)CC(C)C1 (stereo not shown) [Example 8]
[II] CC1CC(NC(=O)c2ccc(Cl)c(S(=O)(=O)N=CN(C)C)c2)CC(C)(C)C1 (stereo not shown) [Example 10]
Asked: Task for the reader: decide whether I or II has the larger melting point. Write the label of whichever entry you select.
Given back: II
(II: 180 °C, I: 89 °C)

[I] CN(C)C=NS(=O)(=O)c1cc(C(=O)NC2CC(C)(C)NC(C)(C)C2)ccc1Cl [Example 11]
[II] CC1CC(NS(=O)(=O)c2cc(S(=O)(=O)N=CN(C)C)c(Cl)cc2N)CC(C)(C)C1 (stereo not shown) [Example 32]
Asked: Task for the reader: decide whether I or II has the larger melting point. Write the label of whichever entry you select.
Given back: I

* * *

readout kind: melting point

Known melting point results, listed for orientation:
[[record]]
compound = "CC1CC(NS(=O)(=O)c2cc(S(=O)(=O)N=CN(C)C)c(C(F)(F)F)cc2N)CC(C)(C)C1 (stereo not drawn)"
obs_value = "> 165 °C (dec.)"

[[record]]
compound = "CN(C)C=NS(=O)(=O)c1cc(S(=O)(=O)NC2CCCCC2)c(N)cc1C(F)(F)F"
obs_value = "> 185 °C (dec.)"


Query compound follows.
Asked: Please give the measured melting point for this compound: CC(C)N(C1CCCCC1)S(=O)(=O)c1cc(S(=O)(=O)N=CN(C)C)c(Cl)cc1N
Given back: 122 °C (dec.)
